molecular target: Hexose transporter 1 (Plasmodium falciparum); experiment: ST_JUDE_LEISH: Cytotoxicity at 2uM final concentration against transgenic Leishmania Mexicana promastigotes LmPfHT that are glucose transport deficient and complemented with the Plasmodium falciparum hexose transporter. Activity is measured by DNA content using SYBR green in vitro; assay type: functional
READOUT: inhibition (%)
Unit % implied. Number only.

Examples from the recorded data:
- MOLECULE: "Cc1ccc(CNC(=O)[C@H](CCCN)Nc2nc(NCC3CCCCC3)ncc2C)cc1"
  READOUT: "inhibition"
  UNITS LABEL: "%"
  MEASURED: 2.8
- MOLECULE: "O=S(=O)(Nc1ccc(CCN2CCC(N3CCCCC3)CC2)cc1)c1cccc2cccnc12"
  READOUT: "inhibition"
  UNITS LABEL: "%"
  MEASURED: 3.39
- MOLECULE: "O=C(c1cccs1)N1N=C(c2cccs2)CC1c1cccc([N+](=O)[O-])c1 (stereo unspecified)"
  READOUT: "inhibition"
  UNITS LABEL: "%"
  MEASURED: 5.4

Prompt line: Identify measured inhibition associated with CCOc1cc(Cc2cnc(N)nc2N)ccc1OC
Response line: 0.12

Prompt line: Identify measured inhibition associated with O=C1CCCC1Sc1nc2ccccc2c(=O)n1-c1ccc(Cl)c(Cl)c1 (stereo unspecified)
Response line: 1.97

Prompt line: Identify measured inhibition associated with Cn1c(N)cc(-c2ccc(Br)cc2)c2c(=O)nc(N)nc1-2
Response line: 4.96

----------
target: Glucose transporter (Leishmania mexicana) (UniProt O61059); experiment: ST_JUDE_LEISH: Cytotoxicity at 2uM final concentration against transgenic Leishmania Mexicana promastigotes LmGT2 that are glucose transport deficient and complemented with the L. Mexicana glucose transporter 2. Activity is measured by DNA content using SYBR green in vitro; type: functional
inhibition by entry:
Unit % implied. Number only.

- COMPOUND: "NC1=NC(c2ccccc2)(c2ccccc2)C(=O)N1CCOc1ccccc1"
  UNITS LABEL: "%"
  inhibition: 2
- COMPOUND: "COc1ccccc1NC(=O)Nc1ccc(-c2ccc(-c3nc4cc(C(F)(F)F)ccc4[nH]3)cc2)cc1"
  UNITS LABEL: "%"
  inhibition: 2.26
- COMPOUND: "Cn1cccc1CCNCc1ccc(-c2cccc(-c3nc4ccccc4[nH]3)c2)cc1"
  UNITS LABEL: "%"
  inhibition: 2.55

# evaluate next
Prompt line: Identify measured inhibition associated with COc1cc2nc(N3CCC(CNC(=O)c4ccc(-c5ccc(C#N)cc5)cc4)CC3)nc(N)c2cc1OC
Response line: 1.74

----------
inhibition by entry:
biological target: Glucose transporter (Leishmania mexicana); assay: ST_JUDE_LEISH: Cytotoxicity at 2uM final concentration against transgenic Leishmania Mexicana promastigotes LmGT2 that are glucose transport deficient and complemented with the L. Mexicana glucose transporter 2. Activity is measured by DNA content using SYBR green in vitro; type: functional

Examples from the recorded data:
- MOLECULE: "CN1CCN(CCCN(Cc2ccc(-c3cccc(CNCc4ccc5c(c4)OCO5)c3)cc2)C(=O)CCC2CCCC2)CC1"
  inhibition: "-0.03%"
- MOLECULE: "CCCCCCC(C)c1cc(O)c2c(c1)OC(=O)CC2(CC)c1ccccn1 (stereo not given)"
  inhibition: "1.77%"
- MOLECULE: "CC(C)COc1ccc(Cl)cc1Cc1nc(-c2nc3cccc(CN4CCN(C)CC4)c3[nH]2)cs1"
  inhibition: "0.67%"
- MOLECULE: "Cc1[nH]c(C)c(-c2ccc(-c3ccc(OC(F)(F)F)cc3)cc2)c(=O)c1Br"
  inhibition: "3.37%"
- MOLECULE: "Cc1cc(NC(=O)c2cccs2)ccc1OC1CCN(Cc2ccccc2)C1 (stereo not given)"
  inhibition: "1.56%"
- MOLECULE: "CC(C)NCc1ccc(-c2ccc(NC(=O)c3cccc(C#N)c3)cc2)cc1"
  inhibition: "-1%"
- MOLECULE: "CCCCc1ccc(NC(=O)Nc2ccc3c(c2)CCNCC3)cc1"
  inhibition: "1.65%"
- MOLECULE: "COc1ccccc1C(=O)Nc1ccc(Nc2nc(C)cc(N3CCOCC3)n2)cc1"
  inhibition: "5.97%"

Prompt line: Identify measured inhibition associated with CC[C@H]1CN(C/C=C/c2ccc(OC)cc2)CC[C@H]1CCCc1ccnc2ccc(O)cc12
Response line: 1.51%

Prompt line: Identify measured inhibition associated with CCOc1ccc(C(C)NC(=O)Cc2ccccc2F)cc1OCC (stereo not given)
Response line: -0.15%

Prompt line: Identify measured inhibition associated with Cc1cccc2nc(-c3cccc(-c4ccc(NC(=O)NC5CC5c5ccccc5)cc4)c3)[nH]c12 (stereo not given)
Response line: 5.64%

Prompt line: Identify measured inhibition associated with COc1ccc(S(=O)(=O)N(CC(=O)NN=C(C)c2cccs2)c2cc(C)cc(C)c2)cc1OC
Response line: -1.17%

Prompt line: Identify measured inhibition associated with COc1ccc(-c2ccc(NC(=O)c3ccc(C#N)cc3)cc2)cc1CN1CCCC1
Response line: -3.17%
